Measured self-cleavage of individual entries
B1: Osa-1-4 twister ribozyme (parent)
chain: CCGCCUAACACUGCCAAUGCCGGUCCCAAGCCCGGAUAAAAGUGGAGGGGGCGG

variants of: B1; assay: self-cleavage, relative activity (ratio to wild type); higher = more cleavage; co-transcriptional
Number, no unit, nothing else.

G13U G44C    0.03
A36U A46U    0.08
C25G G47C    0.02
A41U G30A    0.06
A46U G50C    0.07

Item: G19A U37A | self-cleavage: 0.88

// self-cleavage value for G19A G51U : 0.17

Lab note: measured self-cleavage of A46C C20A was 0.04

Sample A38G U37A ; self-cleavage observed: 1

What the record says about A16C C52G : self-cleavage is 0.96

Lab note: measured self-cleavage of A39G C20A was 0.91

Reported self-cleavage for A29U U24G was 0.01

Please fill in: self-cleavage reported for A16G U37G = 1.02

For this variant ( G22C G47U ), measured self-cleavage is 0.04

GET /value?item= A28C A8U &field=self-cleavage returns 0.1

Just so you know, measured self-cleavage for C11G C32G came out at 0.06

Record summary for A36C G44C : reported self-cleavage = 0.58

variant G22U G44U , self-cleavage observed: 0.47

Query A16U G54C yields self-cleavage of 0.88

// self-cleavage value for G13U U37G : 0.04

Memo: C11G G22A , reported self-cleavage: 0.07

Per the records, this variant ( A29C G51U ) has self-cleavage equal to 0.03

The variant identified as A7G C32U registered its self-cleavage at 0.08

According to the records, this variant A28C G45A displays self-cleavage of 0.13

Looking up A29C A7U , I see its self-cleavage listed as 0.01
